In this section we review reported EC50 values for a set of binders.
target: T1, SARS-CoV-2 spike protein on recombinant CHO K1 cells (SARS-CoV-2, UniProt P0DTC2 14-1273); assay: FACS on CHO K1 cells
T1 construct: whole, on cells

binder	value-units	EC50
14F3 VHH-Fc (Fc fusion) QVQLVESGGGLVQAGGSLRLSCAASGRTSSIYGVGWFRQAPGKERELVALITWSGGTTYYSDSVKGRFTISKDNAKNTVFLQMNNLKPEDTAIYYCAVDTYSMTMSARDYEYWGQGTQVTVSS	nM	0.06
5A6 VHH-Fc (Fc fusion) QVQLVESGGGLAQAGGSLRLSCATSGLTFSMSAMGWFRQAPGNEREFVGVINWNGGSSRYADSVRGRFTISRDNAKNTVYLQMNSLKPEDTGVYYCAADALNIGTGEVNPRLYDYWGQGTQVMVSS	nM	0.43
15H1 VHH-Fc (Fc fusion) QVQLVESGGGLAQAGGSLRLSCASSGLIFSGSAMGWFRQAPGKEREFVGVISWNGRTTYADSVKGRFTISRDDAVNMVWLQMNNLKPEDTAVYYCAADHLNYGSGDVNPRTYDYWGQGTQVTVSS	nM	0.25
19C10 VHH-Fc (Fc fusion) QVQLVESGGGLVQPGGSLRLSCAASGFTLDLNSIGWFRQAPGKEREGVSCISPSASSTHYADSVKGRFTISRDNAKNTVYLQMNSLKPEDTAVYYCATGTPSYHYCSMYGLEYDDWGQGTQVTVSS	nM	0.17

The origin of these recorded values is patent US20250382355A1.
